Cited source for all entries: the kinase profiling compilation of Christmann-Franck et al. (2016)

- ASSAYED_TARGET: BLK (human) (UniProt P51451)
- Sequence (P51451 whole entry, looked up): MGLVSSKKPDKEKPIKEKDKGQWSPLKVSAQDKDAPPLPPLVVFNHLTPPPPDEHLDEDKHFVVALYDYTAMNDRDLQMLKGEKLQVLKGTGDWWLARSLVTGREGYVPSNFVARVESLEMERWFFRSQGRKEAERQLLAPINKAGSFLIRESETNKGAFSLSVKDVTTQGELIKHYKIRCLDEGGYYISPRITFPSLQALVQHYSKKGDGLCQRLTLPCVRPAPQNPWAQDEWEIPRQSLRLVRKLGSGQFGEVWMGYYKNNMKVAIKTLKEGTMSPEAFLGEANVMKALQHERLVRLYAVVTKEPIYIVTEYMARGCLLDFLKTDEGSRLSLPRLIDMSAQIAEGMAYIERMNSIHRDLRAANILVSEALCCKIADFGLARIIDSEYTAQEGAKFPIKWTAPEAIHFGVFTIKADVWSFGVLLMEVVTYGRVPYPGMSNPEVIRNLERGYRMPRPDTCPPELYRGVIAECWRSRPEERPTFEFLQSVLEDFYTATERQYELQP
- PROCEDURE_SUMMARY: KINOMEscan competition binding
- MEASUREMENT_SETUP: compound 10.0 µM
# maps each entry to its kinase still bound, per cent of control
MEASURED_ATTRIBUTE: kinase still bound, per cent of control (%)

MOLECULE: CCOc1cc2ncc(C#N)c(Nc3ccc(OCc4ccccn4)c(Cl)c3)c2cc1NC(=O)/C=C/CN(C)C
MEASURED_ATTRIBUTE: kinase still bound, per cent of control
REPORTED_MEASUREMENT: 3
//
MOLECULE: Cc1cc([C@@H](C)Nc2ccccc2C(=O)O)c2nc(N3CCOCC3)cc(=O)n2c1
MEASURED_ATTRIBUTE: kinase still bound, per cent of control
REPORTED_MEASUREMENT: 99
//
MOLECULE: O=C1Nc2ccc(I)cc2/C1=C/c1cc(Br)c(O)c(Br)c1
MEASURED_ATTRIBUTE: kinase still bound, per cent of control
REPORTED_MEASUREMENT: 41
//
MOLECULE: Cc1ccc(NC(=O)c2cccc(C(C)(C)C#N)c2)cc1Nc1ccc2ncn(C)c(=O)c2c1
MEASURED_ATTRIBUTE: kinase still bound, per cent of control
REPORTED_MEASUREMENT: 1
//
MOLECULE: OCCCNc1cc(-c2ccnc(Nc3cccc(Cl)c3)n2)ccn1
MEASURED_ATTRIBUTE: kinase still bound, per cent of control
REPORTED_MEASUREMENT: 100
//
MOLECULE: CCCS(=O)(=O)Nc1ccc(F)c(C(=O)c2c[nH]c3ncc(-c4ccc(Cl)cc4)cc23)c1F
MEASURED_ATTRIBUTE: kinase still bound, per cent of control
REPORTED_MEASUREMENT: 2.2
//
MOLECULE: Nc1ccc(-c2ccc3ncc4ccc(=O)n(-c5cccc(C(F)(F)F)c5)c4c3c2)cn1
MEASURED_ATTRIBUTE: kinase still bound, per cent of control
REPORTED_MEASUREMENT: 98
//
MOLECULE: O=C(NOC[C@H](O)CO)c1ccc(F)c(F)c1Nc1ccc(I)cc1F
MEASURED_ATTRIBUTE: kinase still bound, per cent of control
REPORTED_MEASUREMENT: 83
//
MOLECULE: C=CC(=O)Nc1cccc(Nc2nc(N[C@H]3CC[C@H](N(C)C)CC3)nc3c2ncn3C(C)C)c1
MEASURED_ATTRIBUTE: kinase still bound, per cent of control
REPORTED_MEASUREMENT: 17
//
MOLECULE: C=CC(=O)Nc1cc(NC(=O)c2ccc(C)c(NC(=O)c3ccno3)c2)cc(C(F)(F)F)c1
MEASURED_ATTRIBUTE: kinase still bound, per cent of control
REPORTED_MEASUREMENT: 97
//
MOLECULE: O=C(NC1CC1)c1cccc(-c2ccc3c(NC(=O)C4CC4)n[nH]c3c2)c1
MEASURED_ATTRIBUTE: kinase still bound, per cent of control
REPORTED_MEASUREMENT: 100
//
MOLECULE: CCN1CCN(Cc2ccc(Nc3ncc4c(n3)N(C)c3ccccc3C(=O)N4C)cc2C(F)(F)F)CC1
MEASURED_ATTRIBUTE: kinase still bound, per cent of control
REPORTED_MEASUREMENT: 8.3
//
MOLECULE: C=CC(=O)Nc1cccc(Oc2nc(Nc3ccc(N4CCN(C)CC4)cc3OC)ncc2Cl)c1
MEASURED_ATTRIBUTE: kinase still bound, per cent of control
REPORTED_MEASUREMENT: 0.75
//
MOLECULE: CCC(=O)N1CCN(c2ccc(-n3c(=O)ccc4cnc5ccc(-c6cnc7ccccc7c6)cc5c43)cc2C(F)(F)F)CC1
MEASURED_ATTRIBUTE: kinase still bound, per cent of control
REPORTED_MEASUREMENT: 75
//
MOLECULE: COc1cc(C(=O)NC2CCN(C)CC2)ccc1Nc1ncc2c(n1)N(C1CCCC1)C(C)CC(=O)N2C (centres undefined)
MEASURED_ATTRIBUTE: kinase still bound, per cent of control
REPORTED_MEASUREMENT: 100
//
MOLECULE: N#Cc1c(NC(=O)c2cccc3ccccc23)sc2c1CCCC2
MEASURED_ATTRIBUTE: kinase still bound, per cent of control
REPORTED_MEASUREMENT: 91
//
MOLECULE: C[C@@H](Oc1cc(-n2cnc3ccc(CN4CCN(C)CC4)cc32)sc1C(N)=O)c1ccccc1C(F)(F)F
MEASURED_ATTRIBUTE: kinase still bound, per cent of control
REPORTED_MEASUREMENT: 100
//
MOLECULE: Cc1ccc(C(=O)Nc2cccc(C(F)(F)F)c2)cc1Nc1cncc(C(N)=O)c1
MEASURED_ATTRIBUTE: kinase still bound, per cent of control
REPORTED_MEASUREMENT: 100
//
MOLECULE: COc1cc(C(=O)NC2CCN(C)CC2)ccc1Nc1ncc2c(n1)N(C1CCCC1)CCC(=O)N2C(C)C
MEASURED_ATTRIBUTE: kinase still bound, per cent of control
REPORTED_MEASUREMENT: 100
